Attribute: kon
- Experimental System: T1, T2 mechanosensitive channel from Thermoplasma volcanium, tag free (Thermoplasma volcanium)
- T1 construct: TVN0821, gene amplified from genomic DNA (DSM 4299 [GSS1*]); 297 amino acids per monomer; Cloned into pNIC28-Bsa4 (TEV site) and pET46 (Enterokinase site); In detergent (0.03 % DDM); also called T2 channel; tag free T2-channel; source: E. coli C43(DE3), purified (DDM solubilised, IMAC, tag cleavage, second IMAC, gel filtration); not shown: His-tag, N-terminal, cleaved
- T1 chain: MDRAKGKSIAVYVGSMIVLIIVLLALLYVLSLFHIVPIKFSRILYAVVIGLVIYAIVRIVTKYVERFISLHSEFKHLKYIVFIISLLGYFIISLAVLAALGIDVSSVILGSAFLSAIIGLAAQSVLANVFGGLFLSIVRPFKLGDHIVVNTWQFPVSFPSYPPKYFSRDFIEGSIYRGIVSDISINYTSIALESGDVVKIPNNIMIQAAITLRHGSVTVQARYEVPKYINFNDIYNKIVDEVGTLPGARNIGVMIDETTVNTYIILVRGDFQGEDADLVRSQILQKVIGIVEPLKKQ
- Method Summary: SPR; BIAcore 3000, 25 °C, 20 mM sodium phosphate pH 7.4, 150 mM NaCl, 0.03 % DDM; T2 channel amine-coupled on CM5 (1500 - 2000 RU); nanobodies 0.35 - 86.1 nM injected in triplicates; global fit to a simple bimolecular model, KD = kd/ka
- Assay Conditions: both partners purified
Could you give me the number in M⁻¹ s⁻¹? Just the number is fine.

# count of solved cases: 5
Binder	kon (M⁻¹ s⁻¹)
nanobody 7 (VHH, pHEN6 vector; also called Nb 7; CA-number 3388; source: E. coli WK6 periplasm, purified (IMAC, gel filtration); not shown: His-tag, C-terminal, kept) VHH: QVQLQESGGGLVQPGGSLRLSCTASGTIFMIDAMGWYRQAPGKQRELVALINSGGSTNYADSVKGRFAISRNNARSTVYLQMNSLKPEDTAVYYCNADTWNGVRRDVYWGQGTQVTVSS	3e+06
nanobody 21 (VHH, pHEN6 vector; also called Nb 21; CA-number 3404; source: E. coli WK6 periplasm, purified (IMAC, gel filtration); not shown: His-tag, C-terminal, kept) VHH: QVQLQESGGGLVQPGGSLRLSCAASGRIPFITAMGWYRQAPGRQRELLATVTNSGSTNYADSVKGRFTISRDNAKNTVSLQMNSLKAEDTAVYYCNVRRLGNLSDYWGQGTQVTVSS	5e+06
nanobody 6 (VHH, pHEN6 vector; also called Nb 6; CA-number 3387; source: E. coli WK6 periplasm, purified (IMAC, gel filtration); not shown: His-tag, C-terminal, kept) VHH: QVQLQESGGGLVQPGGSLRLSCAASGSIFSINAMGWYRQAPGKQRELVAVLTRRGSTNYADSMKGRFTISRDNTKNTVYLQMNSLKPEDTAVYYCNADLEGRPLYWGQGTQVTVSS	1.82e+06
nanobody 13 (VHH, pHEN6 vector; also called Nb 13; CA-number 3395; source: E. coli WK6 periplasm, purified (IMAC, gel filtration); not shown: His-tag, C-terminal, kept) VHH: QVQLQESGGGLVQPGGSLRLSCAASGSISRINHMGWYRQPPGKQRELVAVITSGGSTNYADSVKGRFTISRGNYQNTVYLQMNSLKAEDTAVYYCNAYTEFDRPYNHWGQGTQVTVSS	1.46e+06
nanobody 11 (VHH, pHEN6 vector; also called Nb 11; CA-number 3393; source: E. coli WK6 periplasm, purified (IMAC, gel filtration); not shown: His-tag, C-terminal, kept) VHH: QVQLQESGGGLVQAGGSLRLSCAASGGPFTFGAMGWYRQAPGKQRELVAIITKKGSTNYADSVKGRFTVSRDNAKNTVYLQMNSLKPEDTAVYYCYHQTAPVADVTWGQGTQVTVSS	100000

# get_value(readout='kon', item= nanobody 23 (VHH, pHEN6 vector; also called Nb 23; CA-number 3407; source: E. coli WK6 periplasm, purified (IMAC, gel filtration); not shown: His-tag, C-terminal, kept) VHH: QVQLQESGGGLVQPGGFLTLSCAASGSPFSFGAMGWYRQAPGKQRELVAIITRRGSTNYADSVKGRFTVSSDNAKNTVYLQMNSLKPEDTAVYYCYHQTAPVADVTWGQGTQVTVSS )
1.26e+06

Try nanobody 14 (VHH, pHEN6 vector; also called Nb 14; CA-number 3396; source: E. coli WK6 periplasm, purified (IMAC, gel filtration); not shown: His-tag, C-terminal, kept) VHH: QVQLQESGGGLVQPGGSLRLSCAASGSIFSINSMDWYRQAPGKQRELVATITSGGSTNYADSVKGRFTISRDNAKNTVYLQMNSLKPEDTAVYLCHAVVATRGGYWGQGTQVTVSS next.
880000

Please answer likewise for nanobody 19 (VHH, pHEN6 vector; also called Nb 19; CA-number 3402; source: E. coli WK6 periplasm, purified (IMAC, gel filtration); not shown: His-tag, C-terminal, kept) VHH: QVQLQESGGGLVQPGGSLRLSCAASGSISRLNHMGWYRQPPGKQRELVAVITSGGSTDYADSVKGRFTISSGNAKNTVYLQMNSLKTEDTAVYYCNAYSEFIRPYTLWGQGTQVTVSS
1.35e+06

Item: nanobody 10 (VHH, pHEN6 vector; also called Nb 10; CA-number 3391; source: E. coli WK6 periplasm, purified (IMAC, gel filtration); not shown: His-tag, C-terminal, kept) VHH: QVQLQESGGGLVQPGGSLRLSCAASGSIFSINSMDWYRQAPGKQRELVATITSGGSTNYADSVKGRFTISRDNAKNTVYLQMNSLKPEDTAVYYCHAVVATRGGYWGQGTQVTVSS
940000

Same question, nanobody 18 (VHH, pHEN6 vector; also called Nb 18; CA-number 3401; source: E. coli WK6 periplasm, purified (IMAC, gel filtration); not shown: His-tag, C-terminal, kept) VHH: QVQLQESGGGLVQPGGSLRLSCAASGSIFSINAMGWYRQAPGKQRELVAFITKVGNTNYADSVKDRFAISRDNAKNTVYLQMNSLKPEDTAVYYCYADIENSSNYKQDFYWGQGTQVTVSS this time
480000

Values compiled from paper PMC3804602.
